Measured values drawn from patent US12220421B2 for this set.

# Test system: C. difficile R20291 spores
# method: C. difficile spore germination assay (optical density, OD580)
# measurement.parameters: Clostridioides difficile, R20291SPORES, read-out: % Germination, Table 2; compound 125 μM, 6 mM taurocholate, 12 mM glycine, ± standard deviation
endpoint.label: activity at 125 µM (%)
A number alone suffices; assume %.

Solved entries:
Cc1ccc2c(c1)CCCN2C(=O)CC[C@@H](C)[C@H]1CC[C@H]2[C@@H]3[C@H](O)C[C@@H]4C[C@H](O)CC[C@]4(C)[C@H]3C[C@H](O)[C@]12C [Compound 9]	100
C[C@H](CCC(=O)N(C)c1ccccc1)[C@H]1CC[C@H]2[C@@H]3[C@H](O)C[C@@H]4C[C@H](O)CC[C@]4(C)[C@H]3C[C@H](O)[C@]12C [Compound 14]	31
C[C@H](CCC(=O)N1CCc2cc(F)ccc21)[C@H]1CC[C@H]2[C@@H]3[C@H](O)C[C@@H]4C[C@H](O)CC[C@]4(C)[C@H]3C[C@H](O)[C@]12C [Compound 4]	5

Return value of activity at 125 µM for input C[C@H](CCC(=O)N1CCc2ccccc21)[C@H]1CC[C@H]2[C@@H]3[C@H](O)C[C@@H]4C[C@H](O)CC[C@]4(C)[C@H]3C[C@H](O)[C@]12C [Compound 1] , no commentary.
4
